tested.system: human RORγ-LBD (Homo sapiens)
Construct: made in house; host or cells: E. coli (BL-21)
Sequence (P51449 262-518): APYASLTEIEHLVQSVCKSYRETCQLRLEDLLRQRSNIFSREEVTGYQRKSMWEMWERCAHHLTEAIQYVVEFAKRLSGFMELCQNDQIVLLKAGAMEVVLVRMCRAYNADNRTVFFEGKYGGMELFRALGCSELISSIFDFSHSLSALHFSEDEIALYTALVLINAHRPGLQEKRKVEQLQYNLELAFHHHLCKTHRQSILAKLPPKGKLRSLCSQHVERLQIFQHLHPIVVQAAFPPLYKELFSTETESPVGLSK
test.summary: ROR gamma coactivator peptide recruitment Alphascreen assay (RORγ-LBD binding to GRIP1 coactivator peptide)
Assay type: biochemical
condition.description: 5 nM human RORγ-LBD, 30 nM 7-β-hydroxycholesterol, 50 nM biotinylated GRIP1 coactivator peptide, overnight incubation at room temperature; read-out: result (pIC50, RORγ coactivator peptide recruitment Alphascreen assay) (converted)
readout.kind: log10(IC50) (log10 of the value in nM)

compound: CC1(C)CC[C@H](CN(CC(=O)c2c(Cl)cncc2Cl)C(=O)c2cnn([C@H]3CC[C@](C)(C(=O)O)CC3)c2C(F)(F)F)O1 [Example 655]
tested.system: human RORγ-LBD (Homo sapiens)
log10(IC50): 1.43
--
compound: COc1cc(Cl)c(C(=O)CN(CC2CCC3(CCC3)CC2)C(=O)c2cnn([C@H]3CC[C@@](C)(C(=O)O)CC3)c2C(F)(F)F)c(Cl)c1
tested.system: human RORγ-LBD (Homo sapiens)
log10(IC50): 1.19
--
compound: CC1(C)CC(N(CC(=O)c2c(Cl)cccc2Cl)C(=O)c2cnn([C@H]3CC[C@](C)(C(=O)O)CC3)c2C(F)(F)F)C1
tested.system: human RORγ-LBD (Homo sapiens)
log10(IC50): 1.14
--
compound: O=C(CN(CC1(F)CCCC1)C(=O)c1cnn([C@H]2CC[C@@H](C(=O)O)CC2)c1C(F)(F)F)c1c(Cl)cncc1Cl
tested.system: human RORγ-LBD (Homo sapiens)
log10(IC50): 2.48
--
compound: Cc1cc(Cl)c(C(=O)CN(CC2(C)CCCC2)C(=O)c2cnn([C@H]3CC[C@](C)(C(=O)O)CC3)c2C(F)(F)F)c(Cl)c1
tested.system: human RORγ-LBD (Homo sapiens)
log10(IC50): -0.05
--
compound: CC1(C)CC[C@@H](CN(CCc2c(Cl)cncc2Cl)C(=O)c2cnn([C@H]3CC[C@](C)(C(=O)O)CC3)c2C(F)(F)F)O1
tested.system: human RORγ-LBD (Homo sapiens)
log10(IC50): 1.68
--
compound: Cc1cc(Cl)c(C(=O)CN(Cc2cc(F)cc(F)c2)C(=O)c2cnn([C@H]3CC[C@@](C)(C(=O)O)CC3)c2C(F)(F)F)c(Cl)n1
tested.system: human RORγ-LBD (Homo sapiens)
log10(IC50): 0.73
--
compound: CC(C)[C@@H]1C[C@H](Cc2c(Cl)cncc2Cl)N(C(=O)c2cnn([C@H]3CC[C@](C)(C(=O)O)CC3)c2C(F)(F)F)C1 (single isomer, unassigned) [Example 701]
tested.system: human RORγ-LBD (Homo sapiens)
log10(IC50): 0.97
--
compound: CC1(CN(CCc2c(Cl)cncc2Cl)C(=O)c2cnn([C@H]3CC[C@H](C(=O)O)CC3)c2C(F)(F)F)CCCC1
tested.system: human RORγ-LBD (Homo sapiens)
log10(IC50): 0.45
--
compound: CC(C)(C)CN(CC(=O)c1c(Cl)ccc(F)c1Cl)C(=O)c1cnn([C@H]2CC[C@](C)(C(=O)O)CC2)c1C(F)(F)F
tested.system: human RORγ-LBD (Homo sapiens)
log10(IC50): 0.64
--
compound: C[C@]1(C(=O)O)CC[C@H](n2ncc(C(=O)N(CC(=O)c3c(Cl)cccc3Cl)[C@H]3CCC34CCC4)c2C(F)(F)F)CC1
tested.system: human RORγ-LBD (Homo sapiens)
log10(IC50): 0.33
--
compound: Cc1cc(Cl)c(C(=O)CN(CC2CCC(C)(C)CC2)C(=O)c2cnn([C@H]3CC[C@](C)(C(=O)O)CC3)c2C(F)(F)F)c(Cl)c1
tested.system: human RORγ-LBD (Homo sapiens)
log10(IC50): 0.87
--
compound: C[C@@]1(CN(CC(=O)c2c(Cl)cccc2Cl)C(=O)c2cnn([C@H]3CC[C@](C)(C(=O)O)CC3)c2C(F)(F)F)CCCO1
tested.system: human RORγ-LBD (Homo sapiens)
log10(IC50): 1.07
--
compound: Cc1cc(Cl)c(C(=O)CN(C(=O)c2cnn([C@H]3CC[C@](C)(C(=O)O)CC3)c2C(F)(F)F)[C@H]2C[C@@H](C(C)(C)C)C2)c(Cl)c1
tested.system: human RORγ-LBD (Homo sapiens)
log10(IC50): 0.62
--
compound: Cc1cc(Cl)c(C(=O)CN(Cc2cc(F)c(C(F)(F)F)c(F)c2)C(=O)c2cnn([C@H]3CC[C@H](C(=O)O)CC3)c2C(F)(F)F)c(Cl)c1
tested.system: human RORγ-LBD (Homo sapiens)
log10(IC50): 0.32
--
compound: C[C@H]1C[C@@H](n2ncc(C(=O)N(CC(=O)c3c(Cl)cncc3Cl)CC(C)(C)C(F)(F)F)c2C(F)(F)F)CC[C@@H]1C(=O)O (stereo in doubt) [Example 864]
tested.system: human RORγ-LBD (Homo sapiens)
log10(IC50): 0.47
--
compound: C[C@@H]1C[C@](C)(C(=O)O)CC[C@@H]1n1ncc(C(=O)N(CC(=O)c2c(Cl)cncc2Cl)CC(C)(C)C)c1C(F)(F)F
tested.system: human RORγ-LBD (Homo sapiens)
log10(IC50): 1.53
--
compound: C[C@]1(C(=O)O)CC[C@H](n2ncc(C(=O)N(CCC3CC3)CC(=O)c3c(Cl)cncc3Cl)c2C(F)(F)F)CC1
tested.system: human RORγ-LBD (Homo sapiens)
log10(IC50): 1.34
--
compound: C[C@]1(C(=O)O)CC[C@H](n2ncc(C(=O)N(CC(=O)c3c(Cl)cncc3Cl)CC3(F)CC4(CC4)C3)c2C(F)(F)F)CC1
tested.system: human RORγ-LBD (Homo sapiens)
log10(IC50): 1.11
--
compound: CC1(C)CC[C@H]1N(CC(=O)c1c(Cl)cncc1Cl)C(=O)c1cnn([C@H]2CC[C@](C)(C(=O)O)CC2)c1C(F)(F)F
tested.system: human RORγ-LBD (Homo sapiens)
log10(IC50): 1.53
--
compound: C[C@@]1(CN(CCc2c(Cl)cncc2Cl)C(=O)c2cnn([C@H]3CC[C@H](C(=O)O)CC3)c2C(F)(F)F)CCCO1
tested.system: human RORγ-LBD (Homo sapiens)
log10(IC50): 2.52
--
compound: Cc1cc(Cl)c(C(=O)CN(CC(C)(C)C)C(=O)c2cnn([C@H]3CC[C@H](C(=O)O)CC3)c2C(F)(F)F)c(Cl)n1
tested.system: human RORγ-LBD (Homo sapiens)
log10(IC50): 1.90
--
compound: O=C(c1cnn([C@H]2CC[C@H](C(=O)O)CC2)c1C(F)(F)F)N(CCc1c[nH]c2ccccc12)Cc1ccc(Cl)cc1
tested.system: human RORγ-LBD (Homo sapiens)
log10(IC50): 1.51
--
compound: Cc1cc(Cl)c(C(=O)CN(CC2CCC(C)(C)CC2)C(=O)c2cnn([C@H]3CC[C@@H](C(=O)O)CC3)c2C(F)(F)F)c(Cl)n1
tested.system: human RORγ-LBD (Homo sapiens)
log10(IC50): 0.77
